What fold induction was measured for each of the following?
# assayText: mitochondrial function rescue without frataxin homolog – Friedreich's ataxia, plus single-dose screen, dose response (AID 1465)
# assaySetup: S. cerevisiae Yfh1-off respiration, WST-1 reduction, 72 h; at 50 µM; active compounds read high
The campaign covered roughly 220,000 compounds. About 160 (0.073%) were called active. The list is a sample of the results. Entries with a potency or affinity are not part of this list.
I'd appreciate a reply containing only the number, no unit.

[Q] I'd like to know its fold induction. The compound in question is "CC(C)(C=O)C1=CC(=O)c2ccccc2C1=O"
[A] 1.3

[Q] I'd like to know its fold induction. The compound in question is COc1cc2c(cc1NC(=O)C(C)OC(=O)/C=C/c1ccc(OC(F)F)cc1)oc1ccccc12 (stereo unspecified)
[A] 1.12

[Q] I'd like to know its fold induction. The compound in question is "COc1ccc(CNC(=O)CCS(=O)(=O)Cc2ccc(C)cc2)c(OC)c1"
[A] 0.98

[Q] I'd like to know its fold induction. The compound in question is "COCCNC(=O)c1cnn2c(C(F)F)cc(-c3ccccc3)nc12"
[A] 1.17

[Q] I'd like to know its fold induction. The compound in question is "O=C(NCCNc1ccc([N+](=O)[O-])cc1)c1ccco1"
[A] 1.23

[Q] I'd like to know its fold induction. The compound in question is "O=C(NNC1=C(C(=O)C(F)(F)F)CCC1)c1ccccc1Cl"
[A] 1.02

[Q] I'd like to know its fold induction. The compound in question is "CCCCCCN1C=CC(=C/C=C(\C#N)C(=O)OCC)C=C1"
[A] 1.18

[Q] I'd like to know its fold induction. The compound in question is "O=C(Nc1ccon1)c1cccc(C(F)(F)F)c1"
[A] 0.98

[Q] I'd like to know its fold induction. The compound in question is "CCCCNC(=S)N1CCN(c2ccc(C(C)=O)cc2)CC1"
[A] 0.96

[Q] I'd like to know its fold induction. The compound in question is O=C1C2CCCN2C(c2ccc(Br)cc2)N1c1ccc(F)cc1 (stereo unspecified)
[A] 0.86

[Q] I'd like to know its fold induction. The compound in question is "O=C(NNC1=C(C(=O)C(F)(F)F)CCC1)c1ccc(Cl)cc1"
[A] 1.11

---

# assayText: mitochondrial function rescue without frataxin homolog – Friedreich's ataxia, plus single-dose screen, dose response (AID 1465)
# assaySetup: S. cerevisiae Yfh1-off respiration, WST-1 reduction, 72 h; at 50 µM; active compounds read high
About 160 (0.073%) of roughly 220,000 compounds were called active. The list is a sample of the results. Results with a measured potency or affinity are listed apart.
Entry class follows fold induction: bottom (below 0.9), middle (0.9 to below 1), top (1 or more)

[Q] // return the class label for "CC(C)C(=O)Nc1cccc(NC(=O)c2cccc([N+](=O)[O-])c2)c1"
[A] middle

[Q] // return the class label for "CC(C)=CC(=O)OCC(=O)Nc1cc(C)cc(C)c1"
[A] bottom

[Q] // return the class label for OC(COc1ccc2ccccc2c1)CN1CCN(c2ccc(F)cc2)CC1 (stereo unspecified)
[A] middle

[Q] // return the class label for "Cc1nc2ccc(NC(=O)COc3ccccc3[N+](=O)[O-])cc2s1"
[A] middle

[Q] // return the class label for "COCCCn1c(SCc2nnc(-c3ccc(OC)c(OC)c3)o2)nnc1-c1ccncc1"
[A] top

[Q] // return the class label for CCCC(=O)NC(c1ccccc1OC)c1ccc2cccnc2c1O (stereo unspecified)
[A] top

[Q] // return the class label for O=C(NC(c1ccccc1)c1cc(Cl)c2cccnc2c1O)c1cccnc1 (stereo unspecified)
[A] bottom

[Q] // return the class label for "CC(=O)C1=C(c2ccc(Br)cc2)C(=O)c2ccccc2C1=O"
[A] bottom

---

# assayText: mitochondrial function rescue without frataxin homolog – Friedreich's ataxia, plus single-dose screen, dose response (AID 1465)
# assaySetup: S. cerevisiae Yfh1-off respiration, WST-1 reduction, 72 h; at 50 µM; active compounds read high
About 160 (0.073%) of roughly 220,000 compounds were called active. A selection follows. Entries with a potency or affinity are not part of this list.
readout: fold induction
I'd appreciate a reply containing only the number, no unit.

[Q] I'd like to know its fold induction. The molecule in question is CCCCC(=O)NC(c1ccco1)c1cc(Cl)c2cccnc2c1O (stereo unspecified)
[A] 0.91

[Q] I'd like to know its fold induction. The molecule in question is Cc1cc2cc(C(c3nnnn3Cc3ccco3)N3CCCCC3)c(=O)[nH]c2cc1C (stereo unspecified)
[A] 0.99

[Q] I'd like to know its fold induction. The molecule in question is "Cc1cnccc1CN(C)Cc1nc(Cc2ccccc2Cl)no1"
[A] 0.85

[Q] I'd like to know its fold induction. The molecule in question is "CCOC(=O)c1cnn(-c2ccccc2)c1NC(=O)c1ccccc1C"
[A] 0.92

[Q] I'd like to know its fold induction. The molecule in question is "O=C(Cn1c(COc2ccccc2)nc2ccccc21)Nc1cc(Cl)cc(Cl)c1"
[A] 0.92

[Q] I'd like to know its fold induction. The molecule in question is CCC(=O)NC(c1ccccc1OC)c1ccc2cccnc2c1O (stereo unspecified)
[A] 0.67

[Q] I'd like to know its fold induction. The molecule in question is "CCCc1cc(=O)n(-c2nc3ccccc3s2)[nH]1"
[A] 1

[Q] I'd like to know its fold induction. The molecule in question is "Cc1ccc(N2CCN(C(=O)c3cccc([N+](=O)[O-])c3)CC2)cc1Cl"
[A] 0.82

[Q] I'd like to know its fold induction. The molecule in question is "O=C(CS(=O)(=O)c1c[nH]c2ccccc12)N1CCCCCC1"
[A] 1.02

[Q] I'd like to know its fold induction. The molecule in question is "COC(=O)N/N=C/c1cc(OC)c(O)c([N+](=O)[O-])c1"
[A] 1.19

[Q] I'd like to know its fold induction. The molecule in question is O=C(O)COc1ccccc1C(Nc1ccccn1)c1cc(Cl)c2cccnc2c1O (stereo unspecified)
[A] 1.19

---

# assayText: mitochondrial function rescue without frataxin homolog – Friedreich's ataxia, plus single-dose screen, dose response (AID 1465)
# assaySetup: S. cerevisiae Yfh1-off respiration, WST-1 reduction, 72 h; at 50 µM; active compounds read high
Screen size: about 220,000 compounds; about 160 (0.073%) were called active. Not all results are given here. Results with a measured potency or affinity are listed apart.
Threshold rule: fold induction greater than or equal to 1 is rule met; below that, rule not met.

[Q] hey, is fold induction for this one >= 1? CCC(=O)NC(/C=C/c1ccccc1)c1cc([N+](=O)[O-])c2cccnc2c1O (configuration not stated)
[A] rule met

[Q] hey, is fold induction for this one >= 1? "O=[N+]([O-])c1cc(Cl)c(O)c2ncccc12"
[A] rule met

[Q] hey, is fold induction for this one >= 1? "COc1ccccc1N(CN1C(=O)c2ccccc2C1=O)C(=O)c1cccc(C)c1"
[A] rule not met

[Q] hey, is fold induction for this one >= 1? Cc1nc(SC(C)C(=O)Nc2cccc(C(F)(F)F)c2)c2c(C)c(C(=O)O)sc2n1 (configuration not stated)
[A] rule met

[Q] hey, is fold induction for this one >= 1? "COc1cccc(NC(=O)NCCC2=CCCCC2)c1"
[A] rule not met

[Q] hey, is fold induction for this one >= 1? "CCOc1ccc2nc3ccc4[nH]onc4c3c2c1"
[A] rule not met

[Q] hey, is fold induction for this one >= 1? "O=c1c(N2CCOCC2)c(N2CCOCC2)c1=O"
[A] rule met

[Q] hey, is fold induction for this one >= 1? O=C(CC1(O)C(=O)Nc2ccccc21)c1ccc(-n2cnnn2)cc1 (configuration not stated)
[A] rule met

[Q] hey, is fold induction for this one >= 1? "NC(=S)n1[nH]c(-c2ccc([N+](=O)[O-])cc2)c(N=Nc2ccc(Cl)cc2)c1=O"
[A] rule met

[Q] hey, is fold induction for this one >= 1? "COC(=O)c1ccc(N)cc1O"
[A] rule met

[Q] hey, is fold induction for this one >= 1? "CC(C)n1c(SCC(=O)c2ccc3c(c2)OCCO3)nc2c1c(=O)n(C)c(=O)n2C"
[A] rule met

---

# assayText: mitochondrial function rescue without frataxin homolog – Friedreich's ataxia, plus single-dose screen, dose response (AID 1465)
# assaySetup: S. cerevisiae Yfh1-off respiration, WST-1 reduction, 72 h; at 50 µM; active compounds read high
Hit rate of the full screen: of about 220,000 compounds, about 160 (0.073%) were called active. These entries were drawn from the full list. Measured potencies and affinities stand elsewhere.
What fold induction was measured for each of the following?
I'd appreciate a reply containing only the number, no unit.

[Q] I'd like to know its fold induction. The compound in question is "CC(C)c1nnc(SCC(=O)N2CCc3ccccc32)n1C"
[A] 0.98

[Q] I'd like to know its fold induction. The compound in question is "Cc1cc(C)nc(SCc2ccc(C(=O)N/N=C/c3ccccn3)cc2)n1"
[A] 1.01

[Q] I'd like to know its fold induction. The compound in question is "O=C1NC(=O)/C(=C/c2ccc(N3CCOCC3)o2)N1"
[A] 1.01

[Q] I'd like to know its fold induction. The compound in question is "CCOC(=O)/C(C#N)=N/Nc1c(C)n(C)n(-c2ccccc2)c1=O"
[A] 1

[Q] I'd like to know its fold induction. The compound in question is "Clc1ccc(CSc2ccc(-c3ccccn3)nn2)cc1"
[A] 0.99

[Q] I'd like to know its fold induction. The compound in question is "CCOC(=O)/C(C(N)=NCC(C)C)=C(/O)c1ccccc1"
[A] 0.925

[Q] I'd like to know its fold induction. The compound in question is "O=C1CNC(=O)N1CC(=O)N1CCCc2ccccc21"
[A] 1.04

[Q] I'd like to know its fold induction. The compound in question is "Cc1c(N/C=C/C(=O)c2ccc(Cl)cc2)c(=O)n(-c2ccccc2)n1C"
[A] 1

[Q] I'd like to know its fold induction. The compound in question is "O=C1NC(=O)/C(=C\c2ccc(N3CCOCC3)o2)N1"
[A] 0.97

[Q] I'd like to know its fold induction. The compound in question is "O=C(NNC(=O)c1cccnc1)Nc1cccc(Cl)c1Cl"
[A] 0.89

[Q] I'd like to know its fold induction. The compound in question is "CCOC(=O)c1c(C)oc2c1c(CN1CCN(C(=O)OCC)CC1)c(O)c1ccccc12"
[A] 1.19
